molecular target: T1, biotinylated recombinant human αvβ8 integrin (human, UniProt P06756 31-1048; P26012 43-684, biotinylated (which chain is not stated) | biotinylated (which chain is not stated)); assay: ELISA; competitive integrin binding assay (taken as Assay 3): plates coated with human latent TGFβ1; various amounts of peptide 5a or 5a-HSA with 10 ng/ml biotinylated αvβ6 or αvβ8 in 20 mM Tris-HCl pH 7.4, 150 mM sodium chloride, 1 mM manganese chloride, 0.05% Tween-20, 0.5% BSA, 1 h; HRP-labeled streptavidin; details: both partners purified
T1 construct: integrin alpha-V, human, recombinant; integrin beta-8, human, recombinant; Detected by HRP-labeled streptavidin through the biotin; also called biotinylated-αvβ8; source: bought: Acros CROBiosystems (cat. IT8-H82W5)
Bridge positions count the residues as written; N and C are the ends. Square brackets hold non-standard residues; d marks the D form. Ends that are not written are not given here. Lys(N3) = [N-]=[N+]=NCCCC[C@H](N)C(=O)O; Pra = C#CC[C@H](N)C(=O)O
observed-property: Ki

INPUT: Quick one: Ki for CFETLRGDLRILSILR[Pra]QNL[Lys(N3)]KELQD-NH2 (triazole 17-21) [peptide 5a] ?
OUTPUT: 3.9 nM
